- Tested on: LAMA-84
- Experimental parameters: 72 h
Recorded IC50 (cell viability) for the following compounds

Find IC50 (cell viability) (LAMA-84) for the entry N#Cc1ccc(N(Cc2ccc(Br)cc2)n2cnnc2)cc1 > 10 µM

CN(CCOc1ccc(Cc2sc(O)nc2O)cc1)c1ccccn1 , same question. > 10 µM

# iterate: CN(Cc1cnc2nc(N)nc(N)c2n1)c1ccc(C(=O)N[C@@H](CCC(=O)O)C(=O)O)cc1 [Methotrexate] 0.00473 µM

One more compound: Cc1c2c(=O)n(-c3ccccc3Cl)[nH]c2cc(=O)n1Cc1ccccn1 > 10 µM

Please do the same for c1cc(-c2cnn3cc(-c4ccc(OCCN5CCCCC5)cc4)cnc23)ccn1 as well. 6.49 µM
